tested on: CP256; assay: qHTS profiling for inhibitors of Plasmodium falciparum proliferation (AID 504749); also: nearly all actives have a fitted effect of over 60% in size; also: potency is read from the fitted curve at half-maximal effect; conditions: P. falciparum in erythrocytes, SYBR Green DNA, 72 h; series mostly up to 28.7 µM
Inconclusive results are not listed. Calls of active or inactive are those of the source. Calls follow the shape of the dose curve; as a rule, active = well fitted inhibition curve with a large enough effect; inconclusive = small, poorly fitted or top-dose-only effect; inactive = flat fitted curve, though single readings scatter. Bridge positions count the residues as written; N and C are the ends. Square brackets hold non-standard residues; d marks the D form. Peptide text beside a SMILES is read from it. * marks the point of attachment. Octanoyl(6-Me) = CCC(C)CCCCC(=O)*; Dab = NCC[CH](N)C(=O)O

[
  {
    "COMPOUND": "C/C=C\\c1ccc(OC)cc1",
    "TGT": "CP256",
    "Potency": "inactive"
  },
  {
    "COMPOUND": "CCC(C)n1ncn(-c2ccc(N3CCN(c4ccc(OCC5COC(Cn6cncn6)(c6ccc(Cl)cc6Cl)O5)cc4)CC3)cc2)c1=O (stereo unspecified)",
    "TGT": "CP256",
    "Potency": "inactive"
  },
  {
    "COMPOUND": "CC1CCC(C(C)C)C(OC(=O)c2ccccc2O)C1 (stereo unspecified)",
    "TGT": "CP256",
    "Potency": "inactive"
  },
  {
    "COMPOUND": "CCN1/C(=C/C=C/C=C/c2sc3ccccc3[n+]2CC)Sc2ccccc21",
    "TGT": "CP256",
    "Potency": "4.47 µM (active)"
  },
  {
    "COMPOUND": "CCC(C)CCCCC(=O)NC(CCN)C(=O)NC(C(=O)NC(CCN)C(=O)NC1CCNC(=O)C(C(C)O)NC(=O)C(CCN)NC(=O)C(CCN)NC(=O)C(CC(C)C)NC(=O)C(Cc2ccccc2)NC(=O)C(CCN)NC1=O)C(C)O (stereo unspecified) ({Octanoyl(6-Me)}-[Dab]T[Dab][Dab][Dab]FL[Dab][Dab]T; lactam 4-C; configuration not given here)",
    "TGT": "CP256",
    "Potency": "inactive"
  },
  {
    "COMPOUND": "CC(C)CN(C[C@@H](OP(=O)(O)O)[C@H](Cc1ccccc1)NC(=O)O[C@@H]1CCOC1)S(=O)(=O)c1ccc(N)cc1",
    "TGT": "CP256",
    "Potency": "inactive"
  }
]
